- assay.comment: Parallel artificial membrane permeability assay (PAMPA)
- Assay type: in vitro ADME
- condition.set: pH 7.4, 50 μM, 4 h incubation, read-out: Permeability (P) at pH 7.4
measure: Papp at 4 h, 50 μM (×10⁻⁶ cm/s)
One number for each entry, in ×10⁻⁶ cm/s.

molecule.smiles: CCOC(=O)/C=C/[C@H](C[C@@H]1CCNC1=O)NC(=O)[C@@H](CC(=O)[C@@H](NC(=O)c1cccnc1)C(C)C)Cc1ccc(F)cc1
Papp at 4 h, 50 μM, ×10⁻⁶ cm/s: 16.9

molecule.smiles: CCOC(=O)/C=C/[C@H](C[C@@H]1CCNC1=O)NC(=O)[C@@H](CC(=O)[C@@H](NC(=O)C(F)(F)F)C(C)C)Cc1ccc(F)cc1
Papp at 4 h, 50 μM, ×10⁻⁶ cm/s: 32.7

Please examine the following record next.
query: Give its Papp at 4 h, 50 μM value. Item: `CCOC(=O)/C=C/[C@H](C[C@@H]1CCNC1=O)NC(=O)[C@@H](CC(=O)[C@@H](NC(=O)C(C)C)C(C)C)Cc1ccc(F)cc1`
result: 16.9

====

- assay.comment: Parallel artificial membrane permeability assay (PAMPA)
- Format: in vitro ADME
- condition.set: pH 7.4, 50 μM, 4 h incubation, read-out: Permeability (P) at pH 7.4
measure: Papp at 4 h, 50 μM
Param answer (str): number followed by unit.

Known Papp at 4 h, 50 μM results, listed for orientation:
compound: CCOC(=O)/C=C/[C@H](C[C@@H]1CCNC1=O)NC(=O)[C@@H](CC(=O)[C@@H](NC(=O)c1cccnn1)C(C)C)Cc1ccc(F)cc1 [Compound 4]
measure: Papp at 4 h, 50 μM
result: 12.6 ×10⁻⁶ cm/s

compound: CCOC(=O)/C=C/[C@H](C[C@@H]1CCNC1=O)NC(=O)[C@@H](CC(=O)[C@@H](NC(=O)C(C)(C)C)C(C)C)Cc1ccc(F)cc1 [Compound 10]
measure: Papp at 4 h, 50 μM
result: 15 ×10⁻⁶ cm/s

compound: CCOC(=O)/C=C/[C@H](C[C@@H]1CCNC1=O)NC(=O)[C@@H]1[C@@H](c2ccccc2)CCN1C(=O)[C@@H](NC(=O)c1cc(C)on1)C(C)C [Compound 2]
measure: Papp at 4 h, 50 μM
result: 7.1 ×10⁻⁶ cm/s

compound: CCOC(=O)/C=C/[C@H](C[C@@H]1CCNC1=O)NC(=O)[C@H](Cc1ccc(F)cc1)NC(=O)[C@@H](NC(=O)c1cc(C)on1)C(C)C [Compound 3]
measure: Papp at 4 h, 50 μM
result: 25.1 ×10⁻⁶ cm/s

Hey, quick one: what's Papp at 4 h, 50 μM for each of these?
1. CCOC(=O)/C=C/[C@H](C[C@@H]1CCNC1=O)NC(=O)[C@@H](CC(=O)[C@@H](NC(=O)c1ccc(C)nn1)C(C)C)Cc1ccc(F)cc1 [Compound 8]
2. CCOC(=O)/C=C/[C@H](C[C@@H]1CCNC1=O)NC(=O)[C@@H](CC(=O)[C@@H](NC(=O)c1cc(C)on1)C(C)C)Cc1ccc(F)cc1 [Compound 1, Rupintrivir, reference compound]
3. CCOC(=O)/C=C/[C@H](C[C@@H]1CCNC1=O)NC(=O)[C@@H](CC(=O)[C@@H](NC(=O)c1nnccc1C)C(C)C)Cc1ccc(F)cc1 [Compound 7]
4. CCOC(=O)/C=C/[C@H](C[C@@H]1CCNC1=O)NC(=O)[C@@H](CC(=O)[C@@H](NC(=O)c1ccccn1)C(C)C)Cc1ccc(F)cc1 [Compound 5]

result:
["12.6 ×10⁻⁶ cm/s", "46.9 ×10⁻⁶ cm/s", "11.6 ×10⁻⁶ cm/s", "14.9 ×10⁻⁶ cm/s"]
